The origin of these recorded values is patent US5807535A.

assay: Biodistribution of 99mTc complexes in rats; format: in vivo, Australian Albino Wistar Rats; settings: rat, blood, rats, 10 min, read-out: biodistribution blood
# if measured tissue uptake at 10 min < 0.9 %ID/g: t  # else: f

O=C(O)CN(CCN(CC(=O)O)CC(=O)Nc1ccc(Cl)cc1O)CC(=O)Nc1ccc(Cl)cc1O [Compound 2] = t
O=C(O)CN(CCN(CC(=O)O)CC(=O)Nc1ccccc1O)CC(=O)Nc1ccccc1O [Compound 1] = t
Nc1ccc(O)c(NC(=O)CN(CCN(CC(=O)O)CC(=O)Nc2cc(N)ccc2O)CC(=O)O)c1 [Compound 5] = f
CC(C)(C)c1ccc(O)c(NC(=O)CN(CCN(CC(=O)O)CC(=O)Nc2cc(C(C)(C)C)ccc2O)CC(=O)O)c1 [Compound 4] = f

Read the next record carefully.
Ask: In the record for O=C(O)CN(CCN(CC(=O)O)CC(=O)Nc1cc([N+](=O)[O-])ccc1O)CC(=O)Nc1cc([N+](=O)[O-])ccc1O [Compound 3] , is tissue uptake at 10 min less than 0.9 %ID/g?
Reply: t

* * *

assay: Biodistribution of compound No. 6 in mice (Table 6); type: in vivo, Balb/c mice; conditions: mouse, lungs, 5 min, read-out: biodistribution lungs
assay_endpoint: tissue uptake at 5 min (%ID/g)
API: value field is a number in %ID/g; no unit string.

Ask: If you can, please state the reported tissue uptake at 5 min value of Cc1cc(C)c(O)c(NC(=O)CN(CCN(CC(=O)O)CC(=O)Nc2cc(C)cc(C)c2O)CC(=O)O)c1 [Compound 6] .
Reply: 4.66

* * *

assay: Biodistribution of compound No. 6 in mice (Table 6); type: in vivo, Balb/c mice; conditions: mouse, bone, 3 min, read-out: biodistribution bone
assay_endpoint: tissue uptake at 0.05 h (%ID/g)
// note: answer is a bare numeric in %ID/g

Ask: Param item = Cc1cc(C)c(O)c(NC(=O)CN(CCN(CC(=O)O)CC(=O)Nc2cc(C)cc(C)c2O)CC(=O)O)c1 ; retrieve measured tissue uptake at 0.05 h.
Reply: 1.91

* * *

assay: Biodistribution of 67Ga complexes in mice; format: in vivo, balb/c mice; conditions: 10 min
Recorded biodistribution kidney values for a group of compounds are listed next.
Only the number, expressed in % ID, is required.

Here's what some known entries look like.
O=C(O)CN(CCN(CC(=O)O)CC(=O)Nc1ccccc1O)CC(=O)Nc1ccccc1O = 1.91
Cc1cc(C)c(O)c(NC(=O)CN(CCN(CC(=O)O)CC(=O)Nc2cc(C)cc(C)c2O)CC(=O)O)c1 = 1.98
CC(C)(C)c1ccc(O)c(NC(=O)CN(CCN(CC(=O)O)CC(=O)Nc2cc(C(C)(C)C)ccc2O)CC(=O)O)c1 = 0.43

Please examine the following record next.
Ask: What does the record list as biodistribution kidney for O=C(O)CN(CCN(CC(=O)O)CC(=O)Nc1ccc(Cl)cc1O)CC(=O)Nc1ccc(Cl)cc1O ?
Reply: 1.00

* * *

// reported tissue uptake at 0.05 h per item
experiment: Biodistribution of 99mTc complexes in rats; type: in vivo, Australian Albino Wistar Rats; settings: rat, muscle, rats, 3 min, read-out: biodistribution muscle
// units = %ID/g; emit number, no label

O=C(O)CN(CCN(CC(=O)O)CC(=O)Nc1cc([N+](=O)[O-])ccc1O)CC(=O)Nc1cc([N+](=O)[O-])ccc1O = 0.23

Now for another entry.
Ask: # query: tissue uptake at 0.05 h of entry Nc1ccc(O)c(NC(=O)CN(CCN(CC(=O)O)CC(=O)Nc2cc(N)ccc2O)CC(=O)O)c1
Reply: 0.27

* * *

assay: Biodistribution of 99mTc complexes in mice; format: in vivo, Balb/c mice; conditions: 3 min
assay_endpoint: biodistribution blood (% Injected dose)
Return type: number; implicit unit % Injected dose.

Known results for compounds:
O=C(O)CN(CCN(CC(=O)O)CC(=O)Nc1ccccc1O)CC(=O)Nc1ccccc1O = 12.02
Cc1cc(C)c(O)c(NC(=O)CN(CCN(CC(=O)O)CC(=O)Nc2cc(C)cc(C)c2O)CC(=O)O)c1 = 15.59
O=C(O)CN(CCN(CC(=O)O)CC(=O)Nc1ccc(Cl)cc1O)CC(=O)Nc1ccc(Cl)cc1O = 14.96

We next turn to a different compound, shown below.
Ask: Requested field: biodistribution blood. Item: CC(C)(C)c1ccc(O)c(NC(=O)CN(CCN(CC(=O)O)CC(=O)Nc2cc(C(C)(C)C)ccc2O)CC(=O)O)c1
Reply: 12.06

* * *

assay: Biodistribution of 99mTc complexes in rats; format: in vivo, Australian Albino Wistar Rats; conditions: rat, muscle, rats, 10 min, read-out: biodistribution muscle
Catalogue of compounds with associated tissue uptake at 10 min
Reply with just the number (in %ID/g).

Completed entries (count: 4):
O=C(O)CN(CCN(CC(=O)O)CC(=O)Nc1ccc(Cl)cc1O)CC(=O)Nc1ccc(Cl)cc1O = 0.11
O=C(O)CN(CCN(CC(=O)O)CC(=O)Nc1cc([N+](=O)[O-])ccc1O)CC(=O)Nc1cc([N+](=O)[O-])ccc1O = 0.22
O=C(O)CN(CCN(CC(=O)O)CC(=O)Nc1ccccc1O)CC(=O)Nc1ccccc1O = 0.15
CC(C)(C)c1ccc(O)c(NC(=O)CN(CCN(CC(=O)O)CC(=O)Nc2cc(C(C)(C)C)ccc2O)CC(=O)O)c1 = 0.13

Ask: Name the reported tissue uptake at 10 min value associated with the compound Nc1ccc(O)c(NC(=O)CN(CCN(CC(=O)O)CC(=O)Nc2cc(N)ccc2O)CC(=O)O)c1
Reply: 0.23

* * *

assay: Biodistribution of compound No. 6 in mice (Table 6); assay type: in vivo, Balb/c mice; settings: mouse, pancreas, 5 min, read-out: biodistribution pancreas
assay_endpoint: tissue uptake at 5 min (%ID/g)
# unit: %ID/g | format: bare number

Ask: Returns the measured tissue uptake at 5 min for the input compound. Input: Cc1cc(C)c(O)c(NC(=O)CN(CCN(CC(=O)O)CC(=O)Nc2cc(C)cc(C)c2O)CC(=O)O)c1
Reply: 1.41

* * *

Reported values of tissue uptake at 0.05 h for individual entries
assay: Biodistribution of 99mTc complexes in rats; format: in vivo, Australian Albino Wistar Rats; details: rat, eyes, rats, 3 min, read-out: biodistribution eyes
Numeric only. Scale: %ID/g

Recorded results for 4 compounds are shown here.
Nc1ccc(O)c(NC(=O)CN(CCN(CC(=O)O)CC(=O)Nc2cc(N)ccc2O)CC(=O)O)c1 [Compound 5] = 0.19
CC(C)(C)c1ccc(O)c(NC(=O)CN(CCN(CC(=O)O)CC(=O)Nc2cc(C(C)(C)C)ccc2O)CC(=O)O)c1 [Compound 4] = 0.15
O=C(O)CN(CCN(CC(=O)O)CC(=O)Nc1ccc(Cl)cc1O)CC(=O)Nc1ccc(Cl)cc1O [Compound 2] = 0.12
O=C(O)CN(CCN(CC(=O)O)CC(=O)Nc1ccccc1O)CC(=O)Nc1ccccc1O [Compound 1] = 0.18

We now examine a further compound.
Ask: # query: tissue uptake at 0.05 h of entry O=C(O)CN(CCN(CC(=O)O)CC(=O)Nc1cc([N+](=O)[O-])ccc1O)CC(=O)Nc1cc([N+](=O)[O-])ccc1O [Compound 3]
Reply: 0.23

* * *

test: Biodistribution of 99mTc complexes in mice; assay type: in vivo, Balb/c mice; conditions: 1 min
# key: entry, value: biodistribution GIT
Remember to quote the unit after the number.

// below: answered molecules
CC(C)(C)c1ccc(O)c(NC(=O)CN(CCN(CC(=O)O)CC(=O)Nc2cc(C(C)(C)C)ccc2O)CC(=O)O)c1 [Compound 4] = 3.96 % Injected dose
O=C(O)CN(CCN(CC(=O)O)CC(=O)Nc1ccc(Cl)cc1O)CC(=O)Nc1ccc(Cl)cc1O [Compound 2] = 3.74 % Injected dose
O=C(O)CN(CCN(CC(=O)O)CC(=O)Nc1ccccc1O)CC(=O)Nc1ccccc1O [Compound 1] = 3.82 % Injected dose

// below: biodistribution GIT requested for another molecule
Ask: Name the recorded biodistribution GIT for Cc1cc(C)c(O)c(NC(=O)CN(CCN(CC(=O)O)CC(=O)Nc2cc(C)cc(C)c2O)CC(=O)O)c1 [Compound 6] .
Reply: 3.58 % Injected dose

* * *

assay: Biodistribution of 99mTc complexes in mice; format: in vivo, Balb/c mice; conditions: 10 min
assay_endpoint: biodistribution muscle
Remember to put the unit after the number in your answer.

O=C(O)CN(CCN(CC(=O)O)CC(=O)Nc1ccc(Cl)cc1O)CC(=O)Nc1ccc(Cl)cc1O [Compound 2] = 8.73 % Injected dose
CC(C)(C)c1ccc(O)c(NC(=O)CN(CCN(CC(=O)O)CC(=O)Nc2cc(C(C)(C)C)ccc2O)CC(=O)O)c1 [Compound 4] = 4.95 % Injected dose

Here is the next item to consider.
Ask: # lookup: biodistribution muscle of O=C(O)CN(CCN(CC(=O)O)CC(=O)Nc1ccccc1O)CC(=O)Nc1ccccc1O [Compound 1]
Reply: 16.44 % Injected dose
